From: patent US10029984B2

Test system: Vero cells
Test: in vitro
Format: cell-based
Details: African green monkey
Experimental endpoint: CC50 (µM)

>>> print(df.to_string())
                                    compound  relation_symbol  test_value
 0  COc1cc(NC(C(=O)c2c[nH]c3cc(F)ccc23)c2ccc(F)cc2OC)cc(S(C)(=O)=O)c1 (single isomer, unassigned) [Enantiomer 1B]                =          12
 1  COc1cc(NC(C(=O)c2c[nH]c3c(F)cc(C)cc23)c2ccc(F)cc2OC)cc(S(C)(=O)=O)c1 (single isomer, unassigned) [Enantiomer 6B]                =          12
 2  COc1cc(NC(C(=O)c2c[nH]c3cc(OC)c(Cl)cc23)c2ccc(F)cc2OC)cc(S(C)(=O)=O)c1 (single isomer, unassigned) [Enantiomer 16A]                =         3.7
 3  COc1cc(NC(C(=O)c2c[nH]c3cc(Cl)ccc23)c2ccc(F)cc2OC)cc(S(C)(=O)=O)c1 (single isomer, unassigned) [Enantiomer 4A]                =         4.4
 4  COc1cc(NC(C(=O)c2c[nH]c3c(C)cc(F)cc23)c2ccc(F)cc2OC)cc(S(C)(=O)=O)c1 (single isomer, unassigned) [Enantiomer 8A]                =         5.1
 5  COc1cc(NC(C(=O)c2c[nH]c3cc(OC)ccc23)c2ccc(F)cc2OC)cc(S(C)(=O)=O)c1 (single isomer, unassigned) [Enantiomer 5B]                >          13
 6  COc1cc(NC(C(=O)c2c[nH]c3cc(F)c(C)cc23)c2ccc(F)cc2OC)cc(S(C)(=O)=O)c1 (single isomer, unassigned) [Enantiomer 14A]                =         3.4
 7  COc1cc(NC(C(=O)c2c[nH]c3ccc(C)cc23)c2ccc(F)cc2OC)cc(S(C)(=O)=O)c1 (single isomer, unassigned) [Enantiomer 15A]                =         5.4
 8  COc1cc(NC(C(=O)c2c[nH]c3cc(OC)c(F)cc23)c2ccc(F)cc2OC)cc(S(C)(=O)=O)c1 (single isomer, unassigned) [Enantiomer 11B]                >          25
 9  COc1cc(NC(C(=O)c2c[nH]c3c(C)cc(F)cc23)c2ccc(F)cc2OC)cc(S(C)(=O)=O)c1 (single isomer, unassigned) [Enantiomer 8B]                =          11
10  COc1cc(NC(C(=O)c2c[nH]c3c(C)c(Cl)ccc23)c2ccc(F)cc2OC)cc(S(C)(=O)=O)c1 (single isomer, unassigned) [Enantiomer 3B]                =          11

====

Test system: DENV-3 strain H87
Assay: Tetravalent RT-qPCR assay Protocol A, serotype 3
Format: cell-based
Details: Dengue virus, DENV3, 72 h; RT-qPCR serotype 3 H87, Vero cells, day 3
pEC50: −log10 of the molar value.
pEC50 listing for selected molecules.
Experimental endpoint: pEC50

>>> print(df.to_string())
                                   molecule             target  test_value
0  COc1cc(NC(C(=O)c2c[nH]c3cc(Cl)ccc23)c2ccc(F)cc2OC)cc(S(C)(=O)=O)c1 (single isomer, unassigned) [Enantiomer 4A]  DENV-3 strain H87        7.26
1  COc1cc(NC(C(=O)c2c[nH]c3cc(F)c(F)cc23)c2ccc(F)cc2OC)cc(S(C)(=O)=O)c1 (single isomer, unassigned) [Enantiomer 7A]  DENV-3 strain H87        7.21
2  COc1cc(NC(C(=O)c2c[nH]c3cc(OC)c(F)cc23)c2ccc(F)cc2OC)cc(S(C)(=O)=O)c1 (single isomer, unassigned) [Enantiomer 11A]  DENV-3 strain H87        7.03
3  COc1cc(NC(C(=O)c2c[nH]c3cc(OC)c(Cl)cc23)c2ccc(F)cc2OC)cc(S(C)(=O)=O)c1 (single isomer, unassigned) [Enantiomer 16A]  DENV-3 strain H87        7.60
4  COc1cc(NC(C(=O)c2c[nH]c3c(C)c(Cl)ccc23)c2ccc(F)cc2OC)cc(S(C)(=O)=O)c1 (single isomer, unassigned) [Enantiomer 3A]  DENV-3 strain H87        7.23
5  COc1cc(NC(C(=O)c2c[nH]c3ccc(OC(F)(F)F)cc23)c2ccc(F)cc2OC)cc(S(C)(=O)=O)c1 (single isomer, unassigned) [Enantiomer 18A]  DENV-3 strain H87        8.12

====

Test system: Vero cells
Experiment: in vitro
Type: cell-based
Conditions: African green monkey, 3 days
Experimental endpoint: CC50 (µM)

>>> df
                                   compound      target  experimental_endpoint  test_value
0  COc1cc(NC(C(=O)c2c[nH]c3c(F)c(F)ccc23)c2ccc(F)cc2OC)cc(S(C)(=O)=O)c1 (single isomer, unassigned) [Enantiomer 13B]  Vero cells                   CC50         2.6

====

Tested on: Vero cells
Assay: in vitro
Type: cell-based
Conditions: African green monkey
CC50 listing for selected compounds.
Experimental endpoint: CC50 (µM)

In [3]: df
Out[3]:
                                   compound  experimental_endpoint  display_unit  relation_symbol  test_value
0  COc1cc(NC(C(=O)c2c[nH]c3cc(OC)c(Cl)cc23)c2ccc(F)cc2OC)cc(S(C)(=O)=O)c1 (single isomer, unassigned) [Enantiomer 16B]                   CC50            µM                =          22
1  COc1cc(NC(C(=O)c2c[nH]c3c(F)c(F)ccc23)c2ccc(F)cc2OC)cc(S(C)(=O)=O)c1 (single isomer, unassigned) [Enantiomer 13B]                   CC50            µM                =         6.7
2  COc1cc(NC(C(=O)c2c[nH]c3c(Cl)c(OC)ccc23)c2ccc(F)cc2OC)cc(S(C)(=O)=O)c1 (single isomer, unassigned) [Enantiomer 12B]                   CC50            µM                >          25
3  COc1cc(NC(C(=O)c2c[nH]c3ccc(C(F)(F)F)cc23)c2ccc(F)cc2OC)cc(S(C)(=O)=O)c1 (single isomer, unassigned) [Enantiomer 17B]                   CC50            µM                =         3.6
4  COc1cc(NC(C(=O)c2c[nH]c3ccc(OC(F)(F)F)cc23)c2ccc(F)cc2OC)cc(S(C)(=O)=O)c1 (single isomer, unassigned) [Enantiomer 18A]                   CC50            µM                =         3.1

====

Assay: in vitro
Assay type: cell-based
Settings: African green monkey, CC50
CC50 listing for selected compounds.
Experimental endpoint: CC50

In [3]: df
Out[3]:
                                   compound  test_value
0  COc1cc(NC(C(=O)c2c[nH]c3ccc(C)cc23)c2ccc(F)cc2OC)cc(S(C)(=O)=O)c1 (racemic)      7.8 µM
1  COc1cc(NC(C(=O)c2c[nH]c3c(C)c(F)ccc23)c2ccc(F)cc2OC)cc(S(C)(=O)=O)c1 (racemic) [Compound 2]        8 µM
2  COc1cc(NC(C(=O)c2c[nH]c3cc(OC)c(C)cc23)c2ccc(F)cc2OC)cc(S(C)(=O)=O)c1 (racemic)      7.8 µM

====

CC50 at 3 days listing for selected molecules.
Assay: in vitro
Assay type: cell-based
Conditions: African green monkey, CC50
Experimental endpoint: CC50 at 3 days (µM)

>>> print(df.to_string())
                                   molecule  display_unit  relation_symbol  test_value
0  COc1cc(NC(C(=O)c2c[nH]c3ccc(C)cc23)c2ccc(F)cc2OC)cc(S(C)(=O)=O)c1 (single isomer, unassigned) [Enantiomer 15A]            µM                >         2.5
1  COc1cc(NC(C(=O)c2c[nH]c3cc(OC)c(C)cc23)c2ccc(F)cc2OC)cc(S(C)(=O)=O)c1 (single isomer, unassigned) [Enantiomer 10B]            µM                =        5.14
2  COc1cc(NC(C(=O)c2c[nH]c3ccc(OC(F)(F)F)cc23)c2ccc(F)cc2OC)cc(S(C)(=O)=O)c1 (single isomer, unassigned) [Enantiomer 18A]            µM                =        3.01
3  COc1cc(NC(C(=O)c2c[nH]c3cc(Cl)ccc23)c2ccc(F)cc2OC)cc(S(C)(=O)=O)c1 (single isomer, unassigned) [Enantiomer 4A]            µM                =        3.59
4  COc1cc(NC(C(=O)c2c[nH]c3c(F)c(F)ccc23)c2ccc(F)cc2OC)cc(S(C)(=O)=O)c1 (single isomer, unassigned) [Enantiomer 13B]            µM                =        3.71
5  COc1cc(NC(C(=O)c2c[nH]c3cc(C)c(F)cc23)c2ccc(F)cc2OC)cc(S(C)(=O)=O)c1 (single isomer, unassigned) [Enantiomer 9A]            µM                =        4.04
6  COc1cc(NC(C(=O)c2c[nH]c3cc(F)ccc23)c2ccc(F)cc2OC)cc(S(C)(=O)=O)c1 (single isomer, unassigned) [Enantiomer 1A]            µM                =        3.52
